target: Dual specificity protein kinase CLK4 (Homo sapiens) (UniProt Q9HAZ1); test: qHTS Assay for Inhibitors of CDC-like Kinase 4 (Kinase-Glo Assay) (AID 1770); details: recombinant Clk4, Kinase-Glo ATP depletion luminescence; series mostly up to 66.7 µM; also: nearly all actives have a fitted effect of over 65% in size; also: potency is read from the fitted curve at half-maximal effect
Sequence (Q9HAZ1 whole entry, looked up): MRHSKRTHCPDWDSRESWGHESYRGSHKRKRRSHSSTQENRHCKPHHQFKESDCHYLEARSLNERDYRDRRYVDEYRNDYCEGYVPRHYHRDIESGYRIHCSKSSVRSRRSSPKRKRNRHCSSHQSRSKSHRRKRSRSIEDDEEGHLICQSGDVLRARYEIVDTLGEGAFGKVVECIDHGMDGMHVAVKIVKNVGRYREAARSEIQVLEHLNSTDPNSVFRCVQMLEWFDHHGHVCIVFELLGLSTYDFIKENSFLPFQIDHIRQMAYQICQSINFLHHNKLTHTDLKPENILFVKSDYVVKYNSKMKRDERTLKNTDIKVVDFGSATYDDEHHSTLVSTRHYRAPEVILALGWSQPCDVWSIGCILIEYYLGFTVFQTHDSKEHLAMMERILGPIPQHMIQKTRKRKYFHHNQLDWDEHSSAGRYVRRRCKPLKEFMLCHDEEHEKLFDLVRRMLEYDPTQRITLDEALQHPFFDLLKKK
Inconclusive results are not listed. Active and inactive are the calls of the source. Calls follow the shape of the dose curve; as a rule, active = well fitted inhibition curve with a large enough effect; inconclusive = small, poorly fitted or top-dose-only effect; inactive = flat fitted curve, though single readings scatter.
QUANTITY_KIND: Potency

Sample records with Potency:
# CHEMICAL_SMILES, Potency
data = [
    ("COc1ccccc1-c1nc(N2CCN(C)CC2)c2ccccc2n1", "inactive"),
    ("COc1ccccc1CNc1ncnc2ccc(-c3cccc(NS(C)(=O)=O)c3)cc12", "11.2 µM (active)"),
    ("COc1cccc(-c2cncnc2NCc2ccccc2OC)c1", "14.1 µM (active)"),
    ("COc1cccc(-c2ccc3ncnc(Nc4ccccc4)c3c2)c1", "2 µM (active)"),
    ("CN(C)c1ncc2nc(CCc3ccccc3)c(=O)n(Cc3cccs3)c2n1", "inactive"),
]

# next compound below
**Q:** Please state recorded Potency (tested on Dual specificity protein kinase CLK4 (Homo sapiens) (UniProt Q9HAZ1)) of COc1ccccc1-c1nccc(N2CCN(C)CC2)n1
**A:** inactive

* * *

target: Guanidinoacetate N-methyltransferase (Homo sapiens); test: Confirmatory Screen for Target Class Profiling of Small Molecule Inhibitors of Methyltransferases (AID 1745852); details: MTase-Glo luminescence, SAH detection, recombinant enzyme; at 57.3 µM (top of the series) unless noted; also: % is scaled to controls: 0 for no effect and ±100 for the full control effect
Below, each of the compounds is paired with its reported activity change, negative = inhibition value.

Field: example entries. Status: answers known.
# CHEMICAL_SMILES, REPORTED_VALUE
data = [
    ("CC(C)c1nccn1CCCNC(=O)c1ccc(-c2cccc(F)c2)nc1", "3.97%"),
    ("Cc1noc2c(N3CCOCC3)cc(-c3cccs3)nc12", "2.07% [at 85.7 µM]"),
    ("CCCN1CCn2c3c(c4cc(OC)ccc42)CCN=C31", "-1.32%"),
    ("CC1=C[C@@H](CN(CC2CC2)CC2CC2)[C@H](C(C)C)C[C@H]1Cc1nc2ccncc2[nH]1", "4.35% [at 85.7 µM]"),
]

Query compound follows.
**Q:** Dear colleague, I am looking for the recorded activity change, negative = inhibition of the following compound: Cc1nc2c3ccccc3n3c(CCCC(=O)NCCCN(C)Cc4ccccc4)nnc3n2n1
**A:** 0%

* * *

system: ATS95; assay: qHTS profiling for inhibitors of Plasmodium falciparum proliferation (AID 504749); also: nearly all actives have a fitted effect of over 60% in size; settings: P. falciparum in erythrocytes, SYBR Green DNA, 72 h; series mostly up to 28.7 µM
Inconclusive results are not listed. Active and inactive are the calls of the source. The call rests on the fitted dose curve; in most records, active means well fitted inhibition curve with a large enough effect; inconclusive means small, poorly fitted or top-dose-only effect; inactive means flat fitted curve, though single readings scatter.
Outcomes you can answer with include only these: active, inactive

# MOLECULE, CLASS
data = [
    ("CC(=O)OC1CC2CCC1(C)C2(C)C (centres undefined)", "inactive"),
    ("CC(=O)O[C@@]12CO[C@@H]1C[C@H](O)[C@@]1(C)C(=O)[C@H](O)C3=C(C)[C@@H](OC(=O)C(O)[C@@H](NC(=O)OC(C)(C)C)c4ccccc4)C[C@@](O)([C@@H](OC(=O)c4ccccc4)[C@H]21)C3(C)C (some centres undefined)", "active"),
    ("O=C(O)c1cc(O)c2c(c1)[C@H]([C@H]1c3cc(C(=O)O)cc(O)c3C(=O)c3c(O[C@@H]4OC(CO)C(O)C(O)C4O)cccc31)c1cccc(O[C@@H]3OC(CO)C(O)C(O)C3O)c1C2=O (some centres undefined)", "inactive"),
]

Next molecule, please.
**Q:** Any idea what this test logged for S=C1NC=NC2N=CNC12 (centres undefined) ?
**A:** inactive

* * *

target: Rap guanine nucleotide exchange factor 3 (Homo sapiens) (UniProt O95398); test: Confirmatory qHTS for agonist of cAMP-regulated guanine nucleotide exchange factor 3 (EPAC1) (AID 1645881); conditions: EPAC1 Rap1B BODIPY-GDP exchange fluorescence; series mostly up to 154 µM; also: nearly all actives have a fitted effect of over 75% in size;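 as to activation: EPAC1 catalysed release of BODIPY-GDP from Rap1B seen as fluorescence loss; 100% = effect of cAMP agonist control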
Sequence (O95398 whole entry, looked up): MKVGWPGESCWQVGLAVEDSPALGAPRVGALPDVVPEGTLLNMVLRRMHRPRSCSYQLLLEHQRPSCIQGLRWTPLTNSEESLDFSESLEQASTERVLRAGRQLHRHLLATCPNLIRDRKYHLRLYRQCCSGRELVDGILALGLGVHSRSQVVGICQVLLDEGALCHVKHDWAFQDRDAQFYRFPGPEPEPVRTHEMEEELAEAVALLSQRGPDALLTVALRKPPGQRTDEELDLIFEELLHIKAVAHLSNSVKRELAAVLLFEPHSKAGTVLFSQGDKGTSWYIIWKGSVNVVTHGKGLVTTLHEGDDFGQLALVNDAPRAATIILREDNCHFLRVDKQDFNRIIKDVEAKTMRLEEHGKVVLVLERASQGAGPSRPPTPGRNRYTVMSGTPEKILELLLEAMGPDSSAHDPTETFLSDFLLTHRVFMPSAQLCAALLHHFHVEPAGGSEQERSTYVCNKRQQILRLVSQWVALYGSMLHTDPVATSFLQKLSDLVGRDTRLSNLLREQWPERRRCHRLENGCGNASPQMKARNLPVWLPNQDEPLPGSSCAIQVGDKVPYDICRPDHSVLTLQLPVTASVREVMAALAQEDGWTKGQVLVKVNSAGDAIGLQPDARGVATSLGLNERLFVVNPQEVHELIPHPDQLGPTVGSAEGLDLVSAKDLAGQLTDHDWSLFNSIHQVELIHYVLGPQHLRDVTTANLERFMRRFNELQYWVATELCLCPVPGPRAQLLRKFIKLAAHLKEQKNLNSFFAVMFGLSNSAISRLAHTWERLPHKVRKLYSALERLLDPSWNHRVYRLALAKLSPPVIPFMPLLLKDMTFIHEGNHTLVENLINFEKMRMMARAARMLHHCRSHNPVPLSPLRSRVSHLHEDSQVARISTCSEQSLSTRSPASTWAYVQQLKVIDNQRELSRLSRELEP
Results filed as inconclusive are left out. The source made the active and inactive calls. Calls follow the shape of the dose curve; as a rule, active = well fitted activation curve with a large enough effect; inconclusive = small, poorly fitted or top-dose-only effect; inactive = no such curve, though single readings can be large or run the other way.
Please reply with one of these outcomes: class 1 = active, class 0 = inactive

**Q:** What was the test verdict on Cc1ccc(CNC(=O)CN(c2cc(C)cc(C)c2)S(=O)(=O)c2c(C)[nH]c(=O)[nH]c2=O)cc1 ?
**A:** class 0

**Q:** Call for entry Cc1ccc(-c2csc(/C(C#N)=C(\O)CCl)n2)cc1 :
**A:** class 0

**Q:** For Cc1ccc(O)c(C(=O)c2cc(C#N)c(=O)n(-c3nccs3)c2)c1 , which call appears in the assay record?
**A:** class 1

**Q:** Could you check what this test reported for CCC1SC2=NC(C)=C(C(=O)OC)C(c3cccs3)N2C1=O (stereo unspecified) ?
**A:** class 0

**Q:** Dear colleague, could you share the recorded outcome for O=C1NC(=O)C(=Cc2ccccc2[N+](=O)[O-])S1 when you have a moment?
**A:** class 0

**Q:** Tell me the recorded outcome of this test for COc1cccc(-c2nc(CS(=O)(=O)CC(=O)N3CCN(C)CC3)c(C)o2)c1 .
**A:** class 0

* * *

system: AS120; assay: qHTS profiling for inhibitors of Plasmodium falciparum proliferation (AID 504749); also: nearly all actives have a fitted effect of over 60% in size; settings: P. falciparum in erythrocytes, SYBR Green DNA, 72 h; series mostly up to 28.7 µM
Results filed as inconclusive are left out. Active and inactive are the calls of the source. Calls follow the shape of the dose curve; as a rule, active = well fitted inhibition curve with a large enough effect; inconclusive = small, poorly fitted or top-dose-only effect; inactive = flat fitted curve, though single readings scatter. Bridge positions count the residues as written; N and C are the ends. Square brackets hold non-standard residues; d marks the D form. Peptide text beside a SMILES is read from it. * marks the point of attachment. Octanoyl(6-Me) = CCC(C)CCCCC(=O)*; Dab = NCC[CH](N)C(=O)O
Valid outcomes are listed here; reply with one: active, inactive

# COMPOUND, CLASS
records = [
    ("O=C(O)c1cc(O)c2c(c1)[C@H]([C@H]1c3cc(C(=O)O)cc(O)c3C(=O)c3c(O[C@@H]4OC(CO)C(O)C(O)C4O)cccc31)c1cccc(O[C@@H]3OC(CO)C(O)C(O)C3O)c1C2=O (some centres undefined)", "inactive"),
]

**Q:** Please state the recorded outcome for this compound: CC(=O)O[C@@]12CO[C@@H]1C[C@H](O)[C@@]1(C)C(=O)[C@H](O)C3=C(C)[C@@H](OC(=O)C(O)[C@@H](NC(=O)OC(C)(C)C)c4ccccc4)C[C@@](O)([C@@H](OC(=O)c4ccccc4)[C@H]21)C3(C)C (some centres undefined)
**A:** active

**Q:** Could you check what this test reported for C1OCOCO1 ?
**A:** inactive

**Q:** Test call for this compound, please: CCC(C)CCCCC(=O)NC(CCN)C(=O)NC(C(=O)NC(CCN)C(=O)NC1CCNC(=O)C(C(C)O)NC(=O)C(CCN)NC(=O)C(CCN)NC(=O)C(CC(C)C)NC(=O)C(Cc2ccccc2)NC(=O)C(CCN)NC1=O)C(C)O (centres undefined) ({Octanoyl(6-Me)}-[Dab]T[Dab][Dab][Dab]FL[Dab][Dab]T; lactam 4-C; configuration not given here)
**A:** inactive

* * *

biological target: Rap guanine nucleotide exchange factor 3 (Homo sapiens); test: Counterscreen qHTS for antagonist of cAMP-regulated guanine nucleotide exchange factor 3 (EPAC1) (AID 1645888); conditions: Rap1B-BODIPY-GDP nucleotide exchange, fluorescence; series mostly up to 154 µM;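 also: fluorescence loss as bound BODIPY-GDP is released from Rap1B; % of control where 0% means no effect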
Records with an inconclusive call do not appear. The source made the active and inactive calls. Calls come from the whole dose curve; as a rule, active = well fitted inhibition curve with a large enough effect; inconclusive = small, poorly fitted or top-dose-only effect; inactive = no such curve, though single readings can be large or run the other way.
QUANTITY_KIND: activity change, negative = inhibition

# COMPOUND, QUANTITY_KIND, REPORTED_VALUE
records = [
    ("COc1ccc(OC)c2c1C(=O)c1ccccc1C2=O", "activity change, negative = inhibition", "inactive"),
    ("Cc1cc2oc(=O)c(CC(=O)O)c(C)c2c2occ(-c3ccccc3)c12", "activity change, negative = inhibition", "inactive"),
    ("COc1ccc(OC)c(NC2c3ccccc3C(=O)N2c2cccnc2)c1 (stereo unspecified)", "activity change, negative = inhibition", "inactive"),
    ("Cc1ccc(NC(=O)COC(=O)c2ccccc2-c2nc3ccccc3s2)c(C)c1", "activity change, negative = inhibition", "inactive"),
]

**Q:** May I ask what activity change, negative = inhibition has been recorded for COc1ccc2cc(-c3nc(Cl)c4c5c(sc4n3)CCCC5)c(=O)oc2c1 ?
**A:** inactive

**Q:** Any idea what its activity change, negative = inhibition is? The compound is COc1ccccc1NC(=O)c1sc2nc(Cc3ccccc3)cc(C(F)(F)F)c2c1N
**A:** -9.81% [at 30.8 µM] (inactive)

**Q:** # lookup: activity change, negative = inhibition of Oc1ccc(NCc2cccc(OCc3ccc(F)cc3)c2)cc1
**A:** -11.4% [at 30.8 µM] (inactive)

**Q:** Fill blank: measured activity change, negative = inhibition of the compound C=CCN1C(=O)/C(=C/c2ccc(OCC(=O)O)cc2)S/C1=N/c1nccs1 is ____.
**A:** -1.64% [at 30.8 µM] (inactive)

**Q:** Quick one: activity change, negative = inhibition for Cc1cccc(NC(=O)CNC(=O)CCc2nc3sc4c(c3c(=O)[nH]2)CCCC4)c1C ?
**A:** inactive

**Q:** Which activity change, negative = inhibition is reported for this compound? COc1cccc2sc(N(CCCN(C)C)C(=O)C(c3ccccc3)c3ccccc3)nc12
**A:** -0.182% [at 30.8 µM] (inactive)

**Q:** Suppose we examine the compound Cc1ccc(-c2nc3c(c(=O)[nH]c(=O)n3Cc3ccccc3)n2C)o1 ; what activity change, negative = inhibition value has been reported?
**A:** inactive

**Q:** Please give the measured activity change, negative = inhibition for this compound: COc1ccccc1N1CCN(C(=O)c2ccc(S(=O)(=O)N3CCCC3)cc2)CC1
**A:** inactive

**Q:** Given the compound CCN(C(=O)Cn1c(=O)oc2cc(Cl)ccc21)c1cccc(C(F)(F)F)c1 , what is its reported activity change, negative = inhibition?
**A:** inactive
